Biological target: human 5-HT2A serotonin receptor (Homo sapiens)
Construct: expressed in transfected cells; host or cells: HEK-293 EBNA cells (transient transfection), membrane preparation
Assay: Radioligand binding, human 5-HT2A receptor ([3H]-ketanserin)
Settings: second value of the cell; membranes of transfected HEK-293 EBNA cells, 1.1 nM [3H]-ketanserin; read-out: Ki(nM) D3/5HT2A/D2: 5HT2A
Procedure: The cells were harvested 48 h post-transfection, washed three times with cold PBS and stored at −80° C. prior to use. […] The protein content of this homogenate was determined with the Bio-Rad (Bradford) Protein Assay (Biorad Laboratories GmbH, München, Germany) according to the instructions of the manufacturer using gamma globulin as the standard. […] The binding affinity (Ki) of the compounds was determined using radioligand binding. […]
The entries below come with measured Ki values attached.
API: value field is a number in nM; no unit string.

Field: example entries. Status: answers known.
[[record]]
molecule = "O=C(N[C@H]1CC[C@H](CCN2CCC(C(=O)c3ccc(F)cc3)CC2)CC1)c1ccc(Cl)cc1Cl"
target_entity = "human 5-HT2A serotonin receptor (Homo sapiens)"
measurement_label = "Ki"
u = "nM"
measured_number = 4

[[record]]
molecule = "O=C(N[C@H]1CC[C@H](CCN2CCC(C(=O)c3ccc(F)cc3F)CC2)CC1)C1CCOC1 (relative stereo)"
target_entity = "human 5-HT2A serotonin receptor (Homo sapiens)"
measurement_label = "Ki"
u = "nM"
measured_number = 64

[[record]]
molecule = "CC(=O)N[C@H]1CC[C@H](CCN2CCC(C(=O)c3ccccc3Cl)CC2)CC1"
target_entity = "human 5-HT2A serotonin receptor (Homo sapiens)"
measurement_label = "Ki"
u = "nM"
measured_number = 26

[[record]]
molecule = "O=C(N[C@H]1CC[C@H](CCN2CCC(F)(C(=O)c3ccccc3)CC2)CC1)c1ccnc2ccccc12"
target_entity = "human 5-HT2A serotonin receptor (Homo sapiens)"
measurement_label = "Ki"
u = "nM"
measured_number = 6

[[record]]
molecule = "O=C(N[C@H]1CC[C@H](CCN2CCC(C(=O)c3ccc(F)cc3)CC2)CC1)c1ccc(S(=O)(=O)c2ccc(Cl)cc2)cc1"
target_entity = "human 5-HT2A serotonin receptor (Homo sapiens)"
measurement_label = "Ki"
u = "nM"
measured_number = 5


Kindly note the recorded Ki for `O=C(N[C@H]1CC[C@H](CCN2CCC(C(=O)c3ccc(F)cc3)CC2)CC1)c1ccnc2ncccc12` , which is 5

Kindly note the recorded Ki for O=C(NC[C@@H]1C[C@H]1CN1CCC(C(=O)c2ccc(F)cc2)CC1)Nc1ccc(Cl)cc1 (relative stereo) , which is 2

Kindly note the recorded Ki for `CCOCCC(=O)N[C@H]1CC[C@H](CCN2CCC(C(=O)c3ccc(F)cc3)CC2)CC1` , which is 269

* * *

Target: human 5-HT2A serotonin receptor (Homo sapiens, UniProt P28223)
Construct: expressed in transfected cells; host or cells: HEK-293 EBNA cells (transient transfection), membrane preparation
Sequence (P28223 whole entry): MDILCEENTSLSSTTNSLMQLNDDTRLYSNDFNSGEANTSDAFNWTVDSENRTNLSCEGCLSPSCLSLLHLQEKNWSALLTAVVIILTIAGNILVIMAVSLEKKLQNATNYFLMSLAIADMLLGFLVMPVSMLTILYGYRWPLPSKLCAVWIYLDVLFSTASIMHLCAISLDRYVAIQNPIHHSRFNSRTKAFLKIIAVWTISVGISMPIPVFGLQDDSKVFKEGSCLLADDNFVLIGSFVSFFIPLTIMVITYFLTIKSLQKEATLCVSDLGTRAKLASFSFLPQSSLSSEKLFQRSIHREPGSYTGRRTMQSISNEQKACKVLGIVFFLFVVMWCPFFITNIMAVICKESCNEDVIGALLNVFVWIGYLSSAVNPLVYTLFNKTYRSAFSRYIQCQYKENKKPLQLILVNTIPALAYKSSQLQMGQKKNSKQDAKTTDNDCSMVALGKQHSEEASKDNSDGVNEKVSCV
Experiment: Radioligand binding, human 5-HT2A receptor ([3H]-ketanserin)
Settings: second value of the cell; membranes of transfected HEK-293 EBNA cells, 1.1 nM [3H]-ketanserin; read-out: Ki(nM) D3/5HT2A/D2: 5HT2A
measurement.label: log10 Ki (log10 of the value in nM)
Each number you see is log10 of Ki, and the unit inside the log is nM.

[[record]]
compound = "O=C(Nc1ccc(Cl)cc1)N[C@H]1CC[C@H](CCN2CCC(C(=O)c3ccc(F)cc3F)CC2)CC1"
measured_number = 1.41

[[record]]
compound = "CC(C)(CO)C(=O)N[C@H]1CC[C@H](CCN2CCC(C(=O)c3ccc(F)cc3)CC2)CC1"
measured_number = 1.40

[[record]]
compound = "CC(C)(C(=O)N[C@H]1CC[C@H](CCN2CCC(C(=O)c3ccc(F)cc3)CC2)CC1)c1ccc(Cl)cc1"
measured_number = 1.08

[[record]]
compound = "O=C(N[C@H]1CC[C@H](CCN2CCC(C(=O)c3ccc(F)cc3)CC2)CC1)C1CCCCC1"
measured_number = 0.90

[[record]]
compound = "O=C(CO)NC1CCC(CCN2CCC(C(=O)c3ccc(F)cc3F)CC2)CC1 (stereo not shown)"
measured_number = 1.92


Kindly note the recorded log10 Ki for `COCCC(=O)N[C@H]1CC[C@H](CCN2CCC(C(=O)c3ccc(F)cc3F)CC2)CC1` , which is 1.90

Kindly note the recorded log10 Ki for `CN(C(=O)N[C@H]1CC[C@H](CCN2CCC(C(=O)c3ccc(F)cc3)CC2)CC1)c1ccc(Cl)cc1` , which is 1.04
